# TARGET_UNDER_TEST: hFP (Homo sapiens, UniProt P43088)
# Sequence (P43088 whole entry): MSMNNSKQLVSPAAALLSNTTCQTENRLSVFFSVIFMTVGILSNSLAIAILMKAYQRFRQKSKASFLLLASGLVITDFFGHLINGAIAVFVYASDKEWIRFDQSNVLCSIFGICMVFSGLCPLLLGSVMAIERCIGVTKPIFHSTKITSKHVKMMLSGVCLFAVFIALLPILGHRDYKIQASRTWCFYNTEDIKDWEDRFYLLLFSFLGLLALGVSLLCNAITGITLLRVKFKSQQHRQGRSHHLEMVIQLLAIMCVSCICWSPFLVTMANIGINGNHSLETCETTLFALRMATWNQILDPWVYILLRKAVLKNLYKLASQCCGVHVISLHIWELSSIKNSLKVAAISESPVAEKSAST
# MEASUREMENT_PROTOCOL: FLIPR calcium signal study, hFP
# EXPERIMENTAL_SETUP: HEK-293(EBNA) cells expressing recombinant human receptor, read-out: HFP functional data
# EC50 per entry
Output spec: scalar in µM, unitless text.

>>> quantitative_readout("C=CC1CC(O)[C@H](C/C=C\\CCCC(N)=O)[C@H]1/C=C/[C@@H](O)CCc1cc(Br)c(C)s1 (stereo partly shown) [Compound 13H]")
0.584
>>> quantitative_readout("CCNC(=O)CCC/C=C\\C[C@@H]1[C@@H](/C=C/[C@@H](O)CCc2cc(Br)c(C)s2)[C@H](O)C[C@@H]1O [Control, reference compound]")
2.14

Then there is this compound:
Task: Given the compound CCC1CC(O)[C@H](C/C=C\CCCC(N)=O)[C@H]1/C=C/[C@@H](O)CCc1cc(Br)c(C)s1 (stereo partly shown) [Compound 20H] , what is its reported EC50?
Output: 5.42
